- TARGET_OF_ASSAY: 5-HT1A (Homo sapiens, UniProt P08908)
- MEASUREMENT_PROTOCOL: 5HT1A Radioligand Receptor Binding Assay ([3H]-8-OH-DPAT, CHO cell membranes)
- Set-up: expressed in transfected cells; host or cells: CHO cells
MEASURED_ENDPOINT: pIC50
Convention used: pIC50 is expressed as -log10 of the molar concentration.

These recorded examples may help you get a feel for the data.
O=c1n(C/C=C\CN2CC=C(c3ccccc3)CC2)c2ccccc2n1CCO 8.36
COCCn1c(=O)n(C/C=C\CN2CC=C(c3ccccc3)CC2)c2ccccc21 8.28

Please find the next compound below.
Output measured pIC50 for this item: CS(=O)(=O)NCCn1c(=O)n(C/C=C\CN2CC=C(c3ccccc3)CC2)c2ccccc21
8.44

###

- TARGET_OF_ASSAY: D4 human receptors (Homo sapiens)
- Construct: expressed in transfected cells; host or cells: CHO cells
- Sequence (P21917 1-419): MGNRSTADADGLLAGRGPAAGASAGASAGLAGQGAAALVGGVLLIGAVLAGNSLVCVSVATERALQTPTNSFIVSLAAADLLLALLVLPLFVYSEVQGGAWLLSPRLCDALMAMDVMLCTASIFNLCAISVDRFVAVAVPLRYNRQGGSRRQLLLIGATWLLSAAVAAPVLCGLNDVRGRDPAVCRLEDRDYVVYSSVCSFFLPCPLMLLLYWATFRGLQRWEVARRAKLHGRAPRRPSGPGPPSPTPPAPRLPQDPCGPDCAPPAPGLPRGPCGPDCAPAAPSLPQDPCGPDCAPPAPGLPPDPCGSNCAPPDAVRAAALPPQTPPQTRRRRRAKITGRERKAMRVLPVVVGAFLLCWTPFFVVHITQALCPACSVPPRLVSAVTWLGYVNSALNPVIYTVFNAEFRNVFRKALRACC
- MEASUREMENT_PROTOCOL: D4 Radioligand Receptor Binding Assay ([3H] YM-09151-2, CHO cell membranes)
- STUDY_CONDITIONS: compound 10^−7 M, singlicate, [3H] YM-09151-2 0.15-0.25 nM
MEASURED_ENDPOINT: D4 Receptor Binding Assay % inhibition (10^−7 M) (%)
Express it in %; write the number only.

# count of solved cases: 3
MOLECULE	VAL
O=c1n(C/C=C/CN2CCN(c3ncccn3)CC2)c2ccccc2n1CCN1CCOCC1 [Compound 349]	31
CCNC(=O)OCCn1c(=O)n(CCCCN2CCN(c3cccc(C)c3)CC2)c2ccccc21 [Compound 94]	72
O=c1n(CCN2CC=C(c3ccccc3)CC2)c2ccccc2n1CCN1CCCCC1 [Compound 150]	52

Let's switch to this molecule now.
Identify D4 Receptor Binding Assay % inhibition (10^−7 M) associated with the molecule O=c1n(CCCCN2CCN(c3ccccc3)CC2)c2ccccc2n1CCN1CCCCC1 [Compound 20]
60

###

- TARGET_OF_ASSAY: 5-HT1A (Homo sapiens)
- Sequence (P08908 1-422): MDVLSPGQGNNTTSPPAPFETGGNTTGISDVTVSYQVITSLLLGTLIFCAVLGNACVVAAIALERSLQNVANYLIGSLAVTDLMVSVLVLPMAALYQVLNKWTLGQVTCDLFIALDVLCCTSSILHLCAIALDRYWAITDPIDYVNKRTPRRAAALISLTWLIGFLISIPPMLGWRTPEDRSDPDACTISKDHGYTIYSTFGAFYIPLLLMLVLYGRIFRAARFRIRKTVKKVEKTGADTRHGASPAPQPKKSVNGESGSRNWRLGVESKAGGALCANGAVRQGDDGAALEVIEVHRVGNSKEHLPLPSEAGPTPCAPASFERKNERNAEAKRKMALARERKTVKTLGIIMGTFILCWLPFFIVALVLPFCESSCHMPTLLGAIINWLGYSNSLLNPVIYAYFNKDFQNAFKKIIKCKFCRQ
- MEASUREMENT_PROTOCOL: 5HT1A Radioligand Receptor Binding Assay ([3H]-8-OH-DPAT, CHO cell membranes)
- Design: expressed in transfected cells; host or cells: CHO cells
- STUDY_CONDITIONS: [3H]-8-OH-DPAT; CHO membranes, human 5-HT1A; read-out: 5-HT1A Receptor Binding IC50
- Description: 5HT1A Radioligand Receptor Binding Assay Membranes from CHO cells, expressing 5-HT1A human receptors were suspended in incubation buffer. Binding assays were performed in MultiProbe 204 pipetting system (Packard), according to a predetermined mapping, consistent with the software Screen. The compounds were tested in singlicate at one concentration (10^−7 M) in a total volume of 1000 μl. […] Non-specific binding was determined in the presence of 5-HT (10^−5 M). […]
Response field label takes class 1 when IC50 is strictly below 4 nM and class 0 in all other cases.

CCNC(=O)OCCn1c(=O)n(C/C=C\CN2CC=C(c3ccccc3)CC2)c2ccccc21 class 1
Cc1cccc(N2CCN(C/C=C\Cn3c(=O)n(CCNS(C)(=O)=O)c4ccccc43)CC2)c1 class 0
CCNC(=O)OCCn1c(=O)n(C/C=C/CN2CC=C(c3ccccc3)CC2)c2ccccc21 class 1
O=c1n(C/C=C/CN2CCc3c([nH]c4ccccc34)C2)c2ccccc2n1CCN1CCCCC1 class 0
O=c1n(C/C=C\CN2CCN(c3cccc(C(F)(F)F)c3)CC2)c2ccccc2n1CCO class 1
O=c1n(C/C=C/CN2CCN(c3ccccn3)CC2)c2ccccc2n1CCN1CCCCC1 class 0

# check: IC50 < 4 nM for O=c1n(C/C=C/CN2CCN(c3cccc(Cl)c3)CC2)c2ccccc2n1CCN1CCOCC1
class 1

Check if IC50 falls below 4 nM for CC(=O)NCCn1c(=O)n(CCN2CCN(c3cccc(C)c3C)CC2)c2ccccc21 .
class 0

###

- TARGET_OF_ASSAY: D4 human receptors (Homo sapiens, UniProt P21917)
- Construct: expressed in transfected cells; host or cells: CHO cells
- MEASUREMENT_PROTOCOL: D4 Radioligand Receptor Binding Assay ([3H] YM-09151-2, CHO cell membranes)
- STUDY_CONDITIONS: compound 10^−7 M, singlicate, [3H] YM-09151-2 0.15-0.25 nM
Lab note: anything with D4 Receptor Binding Assay % inhibition (10^−7 M) at or over 70% counts as Fulfilled; the rest go in Not fulfilled.

Field: example entries. Status: answers known.
MOLECULE	CATEGORY
O=c1n(C/C=C/CN2CCN(c3ccccc3)CC2)c2ccccc2n1CCN1CCCCC1 [Compound 327]	Fulfilled
O=c1n(C/C=C/CN2CC=C(c3ccccc3)CC2)c2ccccc2n1CCN1CCCCC1 [Compound 336]	Fulfilled
O=c1n(CCN2CCCCC2)c2ccccc2n1CCN1CCN(c2cccc(C(F)(F)F)c2)CC1 [Compound 149]	Not fulfilled
O=c1n(CCCCN2CCN(c3ncccn3)CC2)c2ccccc2n1CCN1CCCCC1 [Compound 25]	Not fulfilled

Form field: D4 Receptor Binding Assay % inhibition (10^−7 M) at least 70%? Entry: O=c1n(CCCCN2CCN(c3ccc(Cl)c(Cl)c3)CC2)c2ccccc2n1CCN1CCCCC1 [Compound 30]
Fulfilled

D4 Receptor Binding Assay % inhibition (10^−7 M) >= 70% for COCCn1c(=O)n(CCCCN2CCN(c3ccccc3OC)CC2)c2ccccc21 [Compound 19] ?
Not fulfilled

###

- TARGET_OF_ASSAY: D4 human receptors (Homo sapiens)
- Construct: expressed in transfected cells; host or cells: CHO cells
- MEASUREMENT_PROTOCOL: D4 Radioligand Receptor Binding Assay ([3H] YM-09151-2, CHO cell membranes)
- STUDY_CONDITIONS: compound 10^−7 M, singlicate, [3H] YM-09151-2 0.15-0.25 nM
- Protocol: D4 Radioligand Receptor Binding Assay Membranes from CHO cells expressing D4 human receptors, were suspended in incubation buffer. Binding assays were performed in MultiProbe 204 pipetting system (Packard), according to a predetermined mapping, consistent with the software Screen. […] Non-specific binding was determined in the presence of clozapine dissolved in DMSO to a final concentration of 10^−5 M. […]
Some molecules, each annotated with its measured D4 Receptor Binding Assay % inhibition (10^−7 M).
Supply the numeric figure in %, leaving out any unit text.

Below: 2 molecules and their reported D4 Receptor Binding Assay % inhibition (10^−7 M).
CCNC(=O)OCCn1c(=O)n(CCCCN2CCN(c3ccccc3C)CC2)c2ccccc21 64
O=c1n(CCN2CCCCC2)c2ccccc2n1CCN1CCN(c2cccc(Cl)c2)CC1 42

Consider the additional molecule presented here.
Look up D4 Receptor Binding Assay % inhibition (10^−7 M) of CCNC(=O)OCCn1c(=O)n(CCCCN2CCN(c3ccccn3)CC2)c2ccccc21 and report it.
44

###

- TARGET_OF_ASSAY: 5-HT1A (Homo sapiens, UniProt P08908)
- Sequence (P08908 1-422): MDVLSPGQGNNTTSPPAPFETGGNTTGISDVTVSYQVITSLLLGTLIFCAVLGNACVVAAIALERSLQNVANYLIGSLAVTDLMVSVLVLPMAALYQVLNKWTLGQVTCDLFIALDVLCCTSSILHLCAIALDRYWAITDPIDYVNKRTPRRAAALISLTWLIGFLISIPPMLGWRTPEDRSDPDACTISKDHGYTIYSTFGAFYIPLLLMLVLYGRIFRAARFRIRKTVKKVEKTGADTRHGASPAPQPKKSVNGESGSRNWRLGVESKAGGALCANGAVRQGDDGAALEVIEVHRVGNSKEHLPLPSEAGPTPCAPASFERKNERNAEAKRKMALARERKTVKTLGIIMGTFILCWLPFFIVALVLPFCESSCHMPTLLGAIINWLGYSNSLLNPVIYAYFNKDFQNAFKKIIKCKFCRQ
- MEASUREMENT_PROTOCOL: 5HT1A Radioligand Receptor Binding Assay ([3H]-8-OH-DPAT, CHO cell membranes)
- Design: expressed in transfected cells; host or cells: CHO cells
- STUDY_CONDITIONS: compound 10^−7 M, singlicate; [3H]-8-OH-DPAT 0.6-0.7 nM; CHO membranes, human 5-HT1A
// label = class 1 if 5-HT1A Receptor Binding Assay % inhibition (10^−7 M) is not less than 80%, otherwise class 0

Take a look at these entries with their results.
MOLECULE	CATEGORY
COCCn1c(=O)n(CCCCN2CCc3c([nH]c4ccccc34)C2)c2ccccc21 [Compound 7]	class 0
O=c1n(CCCCN2CCN(c3cccc(Cl)c3)CC2)c2ccccc2n1CCN1CCOCC1 [Compound 43]	class 1
O=c1n(C/C=C/CN2CCN(c3ccccc3)CC2)c2ccccc2n1CCO [Compound 378]	class 0

From here, focus on the item given below.
Given the entry COc1ccccc1N1CCN(CCCCn2c(=O)n(CCN3CCCCC3)c3ccccc32)CC1 [Compound 38] , answer whether its 5-HT1A Receptor Binding Assay % inhibition (10^−7 M) meets or surpasses 80%.
class 1
